Each recorded value in this set is attributed to the Human Domainome abundance scans (Beltran et al. 2025).

# abundance fitness annotations
B1: DnaJ homolog subfamily C member 2, residues 451 to 503; numbered along this chain, Q99543 (parent)
chain: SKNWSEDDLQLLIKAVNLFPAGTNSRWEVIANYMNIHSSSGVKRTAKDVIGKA

# Variants of: B1
# procedure-text: abundance fitness (aPCA) (normalised: wild type 0, dead -1); higher = more abundant; growth selection in yeast, the domain comes from the species named
# test-parameters: Homo sapiens
Please give only the number in your answer, with no unit.

Would you please look over these solved cases?
[[record]]
residue_string = "SKNWSEDDLQLLIKAVNLFPAGTNSRWEVIACYMNIHSSSGVKRTAKDVIGKA [N32C]"
reported_result = -0.524

[[record]]
residue_string = "SKNWSEDDLQLLIKQVNLFPAGTNSRWEVIANYMNIHSSSGVKRTAKDVIGKA [A15Q]"
reported_result = -1.03

[[record]]
residue_string = "SKNWSEDDLQLLIKAVNLFPAGTNSRWEVIANYMNIHSSSGVKRTAKDVVGKA [I50V]"
reported_result = 0.03


With those in mind, consider the next variant.
Given the variant SKNWSEIDLQLLIKAVNLFPAGTNSRWEVIANYMNIHSSSGVKRTAKDVIGKA [D7I] , what is its reported abundance fitness?
-0.19
